Where do the numbers come from? From patent US20130108641A1.

Target: T1, human GITR-Fc fusion protein (human, UniProt Q9Y5U5 26-162)
T1 construct: extracellular domain; also called hGITR-Fc; recombinant human GITR-Fc; not shown: Fc part
T1 sequence (looked up): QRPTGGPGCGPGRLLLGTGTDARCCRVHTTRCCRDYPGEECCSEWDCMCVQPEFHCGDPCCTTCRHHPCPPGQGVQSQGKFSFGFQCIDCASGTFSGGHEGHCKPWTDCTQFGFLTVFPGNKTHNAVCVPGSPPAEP
Assay: SPR (BIAcore 2000), mAb captured on anti-mouse Fc, antigen injected
# koff annotations
Answer by giving the amount and then stating its unit.

Consider the reported koff for these binders:
anti-GITR antibody clone 698 (antibody, V domains shown, Murine hybridoma antibody; also called 698-GITR2; 698 GITR-2) VH: EVQLQQSGTVLARPGASVKMSCEASGYSFTTYWMHWIKQRPGQGLEWIGAIYPGNSDTGYNQKFKGKAKLTAVTSATTAYMELSSLTDEDSAVYYCTRTSTYPHFDYWGQGTTLTVSS VL: DILLTQSPAILSVSPGERVSFSCRASQSIGTSIHWYQQRTNGSPRLLIKYASESISGIPSRFSGSGSGTDFTLNINSVESEDIADYYCQQSNNWPLTFGAGTKLELK	0.000224 s⁻¹
anti-GITR antibody clone 1649 (antibody, V domains shown, Murine hybridoma antibody; also called 1649-GITR2; 1649 GITR-2) VH: EVQLQQSGTVLAGPGTSVKMSCEASGYSFTTYWIHWIKQRPGQGLEWIGAIYPGNSDAGYNQKFKGKAKLTAVTSASTAYMELSSLTNEDSAVYYCTRSSTYPHFDYWGQGTTLTVSS VL: DILLTQSPAILSVSPGERVSFSCRASQSIGTSIHWYQQRTNDSPRLLIKYASESISGIPSRFSGSGSGTDFTLNINSVESEDIADYYCQQTNNWPLTFGAGTKLELK	7.44e-05 s⁻¹

Now look at this one.
Fill blank: measured koff of the binder anti-GITR antibody clone 706 (antibody, V domains shown, Murine hybridoma antibody; also called 706-GITR2; 706 GITR-2) VH: EVQLQQSGTVLARPGASVKMSCEASGYSFTTYWMHWIKQRPGQGLEWIGAIYPGNSDTGYNQKFKGKAKLTAVTSASTAYMELSSLTNEDSAVYYCTRTSTYPHFDYWGQGTTLTVSS VL: DILLTQSPAILSVSPGERVSFSCRASQSIGTSIHWYQQRTNGSPRLLIKYASESISGIPSRFSGSGSGTDFTLNINSVESEDIADYYCQQTNNWPLTFGAGTKLELK is ____.
0.000221 s⁻¹
